Each item that follows carries a reported pEC50.
# assayed system: recombinant human PKM2 (Homo sapiens)
# Construct: His (N); purchased R&D Systems
# protocol notes: Human PKM2 activation assay (Kinase-Glo Plus luminescent detection of generated ATP)
# Type: biochemical
# study conditions: recombinant human PKM2 activation; 4-parameter logistic fit; read-out: hPKM2 EC50
# Experimental: Compound activation of recombinant human PKM2 pyruvate kinase activity was determined by biochemical assay. […] The Kinase-Glo® Plus luminescence assay was from Promega. […] After 60 minutes' incubation on an orbital shaker (300 rpm, 26° C.), enzyme activity was quantified by the luminescent detection of generated ATP. […] Percentage activation was calculated by normalising […] signals to plate LOW (DMSO vehicle) and HIGH (5 μM TEPP-46) controls. […]
pEC50: −log10 of the molar value.
endpoint label: pEC50

molecule="NC(=O)c1occc1Cn1ncc2cc(S(=O)(=O)c3ccccc3)ccc2c1=O [Example 85]" result=7.15
molecule="O=c1c2cc(NCCO)c(S(=O)(=O)c3ccccc3)cc2cnn1Cc1ccn(C2CC2)n1 [Example 265]" result=6.87
molecule="COc1cccc(Cn2ncc3cc(S(=O)(=O)c4ccccc4)ccc3c2=O)c1C(N)=O [Example 92]" result=6.80
molecule="COc1ccc(Cn2ncc3cc(S(=O)(=O)c4cccc(OC)n4)ccc3c2=O)cn1 [Example 160]" result=6.62

----------
# assayed system: recombinant human PKM2 (Homo sapiens)
# Construct: His (N); purchased R&D Systems
# protocol notes: Human PKM2 activation assay (Kinase-Glo Plus luminescent detection of generated ATP)
# Format: biochemical
# study conditions: recombinant human PKM2 activation; 4-parameter logistic fit; read-out: hPKM2 EC50
endpoint label: EC50 (nM)

molecule=Cn1ccc(Cn2ncc3c(F)c(S(=O)(=O)c4ccccc4)ccc3c2=O)n1 uom=nM result=86
molecule=COc1ccc(Cn2ncc3cc(S(=O)(=O)c4cccc(F)c4)ccc3c2=O)cn1 uom=nM result=123
molecule=Cn1ccc2cc(S(=O)(=O)c3ccc4c(=O)n(Cc5cc[nH]n5)ncc4c3)ccc21 uom=nM result=93.5
molecule=COc1ccc(S(=O)(=O)c2ccc3c(=O)n(Cc4ccn(CCO)n4)ncc3c2)cc1 uom=nM result=107

----------
# assayed system: recombinant human PKM2 (Homo sapiens)
# Construct: His (N); purchased R&D Systems
# protocol notes: Human PKM2 activation assay (Kinase-Glo Plus luminescent detection of generated ATP)
# Format: biochemical
# study conditions: percentage activation normalised to DMSO vehicle (LOW) and 5 μM TEPP-46 (HIGH); read-out: hPKM2 Emax
endpoint label: Emax

compound="COc1ccc(S(=O)(=O)c2ccc3c(=O)n(Cc4ccccc4N)ncc3c2)cc1 [Example 43]" assayed_system="recombinant human PKM2 (Homo sapiens)" endpoint_label=Emax result=111%
compound="O=c1c2ccc(S(=O)(=O)c3ccccc3)cc2cnn1Cc1ccc2cn[nH]c2c1 [Example 58]" assayed_system="recombinant human PKM2 (Homo sapiens)" endpoint_label=Emax result=88.6%
compound="O=c1c2ccc(S(=O)(=O)c3ccccc3)cc2cnn1Cc1cc(C2CC2)[nH]n1 [Example 25]" assayed_system="recombinant human PKM2 (Homo sapiens)" endpoint_label=Emax result=126%
compound="COc1ccc(S(=O)(=O)c2ccc3c(=O)n(Cc4cccn(C)c4=O)ncc3c2)cc1 [Example 4]" assayed_system="recombinant human PKM2 (Homo sapiens)" endpoint_label=Emax result=106%
compound="COc1ccc([S@@](=N)(=O)c2ccc3c(=O)n(Cc4ccc(OC)nc4)ncc3c2)cc1 (single isomer, unassigned) [Example 138]" assayed_system="recombinant human PKM2 (Homo sapiens)" endpoint_label=Emax result=91.2%
compound="NC(=O)c1nc(Cn2ncc3cc(S(=O)(=O)c4ccccc4)ccc3c2=O)cs1 [Example 93]" assayed_system="recombinant human PKM2 (Homo sapiens)" endpoint_label=Emax result=108%

----------
# assayed system: recombinant human PKM2 (Homo sapiens)
# Construct: His (N); purchased R&D Systems
# protocol notes: Human PKM2 activation assay (Kinase-Glo Plus luminescent detection of generated ATP)
# Type: biochemical
# study conditions: recombinant human PKM2 activation; 4-parameter logistic fit; read-out: hPKM2 EC50
Each item that follows carries a reported EC50.
endpoint label: EC50 (nM)

molecule=Cc1cc(Cn2ncc3cc(S(=O)(=O)c4cn[nH]c4)ncc3c2=O)n[nH]1 result=99
molecule=Cn1ccc(Cn2ncc3cc(S(=O)(=O)c4ccccc4)ncc3c2=O)n1 result=113
molecule=O=c1c2ccc(S(=O)(=O)c3ccccc3)cc2cnn1Cc1ccc(OCCO)nc1 result=131
molecule=COc1ccc(S(=O)(=O)c2ccc3c(=O)n(Cc4cc(C)[nH]n4)ncc3c2)cc1 result=45.5

----------
# assayed system: recombinant human PKM2 (Homo sapiens, UniProt P14618)
# Construct: His (N); purchased R&D Systems
# Sequence (P14618 2-531 limits assumed): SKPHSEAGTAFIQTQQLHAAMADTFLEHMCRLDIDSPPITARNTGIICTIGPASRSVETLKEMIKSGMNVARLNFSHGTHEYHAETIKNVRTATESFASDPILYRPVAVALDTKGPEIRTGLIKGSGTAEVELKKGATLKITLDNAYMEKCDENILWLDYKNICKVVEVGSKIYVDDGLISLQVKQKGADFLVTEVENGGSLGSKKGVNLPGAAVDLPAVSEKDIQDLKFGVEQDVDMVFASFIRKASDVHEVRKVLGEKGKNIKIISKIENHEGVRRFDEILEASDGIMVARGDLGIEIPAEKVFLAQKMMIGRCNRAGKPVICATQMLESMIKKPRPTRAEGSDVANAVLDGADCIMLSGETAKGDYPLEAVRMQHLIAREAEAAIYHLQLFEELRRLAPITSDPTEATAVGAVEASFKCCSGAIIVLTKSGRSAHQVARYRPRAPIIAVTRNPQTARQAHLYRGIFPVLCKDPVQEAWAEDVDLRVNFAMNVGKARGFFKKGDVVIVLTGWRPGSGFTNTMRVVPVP
# protocol notes: Human PKM2 activation assay (Kinase-Glo Plus luminescent detection of generated ATP)
# Assay type: biochemical
# study conditions: recombinant human PKM2 activation; 4-parameter logistic fit; read-out: hPKM2 EC50
pEC50: −log10 of the molar value.
Each item that follows carries a reported pEC50.
endpoint label: pEC50

molecule=Cn1ccc(Cn2ncc3cc(S(=O)(=O)c4ccccc4)c(F)cc3c2=O)n1 result=6.99
molecule=COc1ccc(Cn2ncc3cc(S(=O)(=O)c4ccc(C)s4)ccc3c2=O)cn1 result=7.11
molecule=Cc1cccc(Cn2ncc3cc(S(=O)(=O)c4cn[nH]c4)ccc3c2=O)n1 result=6.90
molecule=COc1ccc(S(=O)(=O)c2ccc3c(=O)n(Cc4cccnc4)ncc3c2)cc1 result=7.19

----------
# assayed system: recombinant human PKLR (Homo sapiens, UniProt P30613)
# Construct: His (N); purchased R&D Systems
# Sequence (P30613 whole entry): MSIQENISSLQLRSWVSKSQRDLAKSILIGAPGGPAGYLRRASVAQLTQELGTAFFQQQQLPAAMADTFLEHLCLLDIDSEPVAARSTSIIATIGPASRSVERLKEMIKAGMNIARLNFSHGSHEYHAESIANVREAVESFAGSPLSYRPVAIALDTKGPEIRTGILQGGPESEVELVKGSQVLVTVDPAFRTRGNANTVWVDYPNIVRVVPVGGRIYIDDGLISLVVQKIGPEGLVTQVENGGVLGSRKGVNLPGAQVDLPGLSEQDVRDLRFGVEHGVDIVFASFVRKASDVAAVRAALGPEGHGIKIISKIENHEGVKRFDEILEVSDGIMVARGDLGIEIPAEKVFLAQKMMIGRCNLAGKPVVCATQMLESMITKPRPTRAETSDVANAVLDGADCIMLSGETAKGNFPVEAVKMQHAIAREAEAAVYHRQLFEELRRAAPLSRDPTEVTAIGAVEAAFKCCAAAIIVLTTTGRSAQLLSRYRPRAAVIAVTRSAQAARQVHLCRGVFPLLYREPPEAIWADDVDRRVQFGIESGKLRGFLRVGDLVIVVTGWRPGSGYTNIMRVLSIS
# protocol notes: Human PKLR activation assay (Kinase-Glo Plus luminescent detection of generated ATP)
# Format: biochemical
# study conditions: activation of recombinant human PKLR; 4-parameter logistic fit; read-out: hPKLR EC50
# Experimental: Compound activation of recombinant human PKLR pyruvate kinase activity was determined by biochemical assay. […] The Kinase-Glo® Plus luminescence assay was from Promega. […] After 60 minutes' incubation on an orbital shaker (300 rpm, 26° C.), enzyme activity was quantified by the luminescent detection of generated ATP. […] Percentage activation was calculated by normalising […] signals to plate LOW (DMSO vehicle) and HIGH (5 μM TEPP-46) controls. […]
Each item that follows carries a reported log10 EC50.
endpoint label: log10 EC50 (log10 of the value in nM)

compound="O=c1c2ccc(S(=O)(=O)c3ccc4occc4n3)cc2cnn1Cc1ccn(C2CC2)n1 [Example 256]" endpoint_label="log10 EC50" result=0.52
compound="Cc1cn(C)nc1Cn1ncc2cc(S(=O)(=O)c3ccccc3)ccc2c1=O [Example 89]" endpoint_label="log10 EC50" result=0.98
compound="O=c1c2ccc(S(=O)(=O)c3cnn(C4CC4)c3)cc2cnn1Cc1cc[nH]n1 [Example 228]" endpoint_label="log10 EC50" result=1.33
compound="COc1ccc(S(=O)(=O)c2ccc3c(=O)n(Cc4ccn(C5CC5)n4)ncc3c2)cn1 [Example 205]" endpoint_label="log10 EC50" result=0.90
compound="Cn1ccc(Cn2ncc3cc(S(=O)(=O)c4ccccc4)c(F)cc3c2=O)n1 [Example 242]" endpoint_label="log10 EC50" result=1.35
compound="COc1ccc(S(=O)(=O)c2ccc3c(=O)n(Cc4cccnc4O)ncc3c2)cc1 [Example 56]" endpoint_label="log10 EC50" result=1.00
compound="O=c1c2ccc(S(=O)(=O)c3ccc4c(c3)OCCO4)cc2cnn1Cc1ccn(CCO)n1 [Example 206]" endpoint_label="log10 EC50" result=1.01
compound="Cn1ccc(Cn2ncc3cc(S(=O)(=O)c4ccccc4)ccc3c2=O)n1 [Example 60]" endpoint_label="log10 EC50" result=1.53
compound="O=c1c2ccc(S(=O)(=O)c3cnn(C4CC4)c3)cc2cnn1Cc1cccnc1O [Example 193]" endpoint_label="log10 EC50" result=1.94
compound="COc1ccc(S(=O)(=O)c2ccc3c(=O)n(Cc4cc(C)[nH]n4)ncc3c2)cc1 [Example 54]" endpoint_label="log10 EC50" result=0.49

----------
Each item that follows carries a reported pEC50.
# assayed system: recombinant human PKM2 (Homo sapiens, UniProt P14618)
# Construct: His (N); purchased R&D Systems
# protocol notes: Human PKM2 activation assay (Kinase-Glo Plus luminescent detection of generated ATP)
# Assay type: biochemical
# study conditions: recombinant human PKM2 activation; 4-parameter logistic fit; read-out: hPKM2 EC50
pEC50: −log10 of the molar value.
endpoint label: pEC50

molecule=Cc1[nH]nc(Cn2ncc3cc(S(=O)(=O)c4cnn(C)c4)ccc3c2=O)c1C result=7.29
molecule=O=c1c2ccc(S(=O)(=O)c3cc[nH]n3)cc2cnn1Cc1cccc(C2CC2)n1 result=6.92
molecule=COc1cccc(S(=O)(=O)c2ccc3c(=O)n(Cc4ccc(OC)nc4)ncc3c2)c1 result=7.23
molecule=O=c1c2ccc(S(=O)(=O)c3ccccc3)cc2cnn1Cc1n[nH]cc1CO result=6.08
molecule=O=c1c2ccc(S(=O)(=O)c3ccccc3)cc2cnn1Cc1ccc(OC(F)F)nc1 result=7.41
molecule=O=c1c2ccc(S(=O)(=O)c3cnn(CCO)c3)cc2cnn1Cc1ccn(C2CC2)n1 result=7.03
molecule=COc1ccc(S(=O)(=O)c2ccc3c(=O)n(Cc4ccc(Cl)cc4F)ncc3c2)cc1 result=6.63
molecule=COc1ccc(Cn2ncc3cc(S(=O)(=O)c4ccc(C)cn4)ccc3c2=O)cn1 result=6.56
molecule=COc1ccc(Cn2ncc3cc(S(=O)(=O)c4ccn(CCO)n4)ccc3c2=O)cn1 result=6.92
molecule=Cc1nc(Cn2ncc3cc(S(=O)(=O)c4cn[nH]c4)ccc3c2=O)c(F)cc1F result=7.07
molecule=Nc1cccc(Cn2ncc3cc(S(=O)(=O)c4cccc5cccnc45)ccc3c2=O)c1 result=6.68
molecule=COc1ccc(Cn2ncc3cc(S(=O)(=O)c4csc(C)n4)ccc3c2=O)cn1 result=6.97
molecule=O=c1c2ccc(S(=O)(=O)c3ccccc3)cc2cnn1Cc1ccc2c(c1)OCO2 result=7.26
molecule=Cc1ccc(F)c(Cn2ncc3cc(S(=O)(=O)c4cn[nH]c4)ccc3c2=O)n1 result=6.97
molecule=O=c1c2ccc(S(=O)(=O)c3cc4c(cn3)OCCO4)cc2cnn1Cc1cc[nH]n1 result=6.74
molecule=Cc1cccc(Cn2ncc3cc(S(=O)(=O)c4c[nH]nc4Cl)ccc3c2=O)n1 result=6.73
molecule=Cc1cccc(Cn2ncc3cc(S(=O)(=O)c4n[nH]cc4Cl)ccc3c2=O)n1 result=6.80
molecule=Cc1ccc(Cn2ncc3cc(S(=O)(=O)c4cn[nH]c4)ccc3c2=O)cn1 result=6.34
molecule=Cc1cc(Cn2ncc3cc(S(=O)(=O)c4cnn(C(F)F)c4)ncc3c2=O)n[nH]1 result=7.01
molecule=O=c1c2ccc(S(=O)(=O)c3cc[nH]n3)cc2cnn1Cc1ccn(C(F)F)n1 result=6.79

Data origin, for the record: patent US20260152487A1
